TESTED_TARGET: T1, human GIP receptor (human) (UniProt P48546)
T1 sequence (looked up): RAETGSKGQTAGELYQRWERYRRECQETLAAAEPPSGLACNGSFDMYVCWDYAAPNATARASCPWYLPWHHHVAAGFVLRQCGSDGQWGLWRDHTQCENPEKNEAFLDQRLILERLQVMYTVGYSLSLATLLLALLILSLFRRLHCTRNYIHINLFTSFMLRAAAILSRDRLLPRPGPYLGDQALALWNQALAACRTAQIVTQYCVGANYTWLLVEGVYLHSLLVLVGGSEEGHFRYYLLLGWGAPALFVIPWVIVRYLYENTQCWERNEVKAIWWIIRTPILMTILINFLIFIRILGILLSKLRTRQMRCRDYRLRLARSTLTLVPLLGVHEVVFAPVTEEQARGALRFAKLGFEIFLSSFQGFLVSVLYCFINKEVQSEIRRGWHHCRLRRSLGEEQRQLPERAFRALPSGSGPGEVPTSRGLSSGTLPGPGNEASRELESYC
METHOD_SUMMARY: cell-based or functional assay
Starred links: 1 amine or outer side, 2 acyl side, 3 side chain; linkers in the order of their positions; H or OH if unused. Non-standard residues stand in square brackets, D forms with d. Groups on a side chain read outwards from the residue. No end group written: not given here. *: point of attachment. C18 diacid = O=C(O)CCCCCCCCCCCCCCCCC(=O)*; γGlu = O=C(O)[C@H](CCC(=O)[*:2])N[*:1]; αMeL = CC(C)C[C@](C)(N)C(=O)O; Dap = NC[C@H](N)C(=O)O; AEEA = NCCOCCOCC(=O)O; Aib = CC(C)(N)C(=O)O
PARAMETER: cAMP Rel EC50, nM (1% HSA) (nM)
API: value field is a number in nM; no unit string.

Task: For the binder Y[Aib]QGTFTSDYS[Dap][αMeL]LDKK([AEEA-γGlu-C18 diacid])AQ[Aib]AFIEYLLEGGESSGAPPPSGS-NH2 [Example 360] , what cAMP Rel EC50, nM (1% HSA) is on record?
Result: 78.3

Others:
Task: For the binder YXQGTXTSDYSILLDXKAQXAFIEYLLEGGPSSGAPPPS (synthetic construct; SITE 2: note = 2-Aminoisobutyric Acid; SITE 6: note = alpha-methyl-2-fluoro-L-phenylalanine; SITE 16: note = L-ornithine; SITE 17: note = Lysine is chemically modified through conjugation of the epsilon-amino group of the Lysine side chain with (gamma-Glu)2-CO-(CH2)16-CO2H; SITE) [Example 428] , what cAMP Rel EC50, nM (1% HSA) is on record?
Result: 4.55

Task: Can you check YXQGTFTSDXSQXLDXKAQXQFIEXLIEGGPSSGAPPPSGSEE (non-natural residues; lipidated Lys AEEA-γGlu-C18 diacid; C-term amide; synthetic construct; SITE 2: note = 2-Aminoisobutyric Acid; SITE 10: note = 3-(4-Pyridyl)-L-alanine; SITE 13: note = alpha-methyl-leucine; SITE 16: note = L-ornithine; SITE 17: note = Lysine is chemically modified through conjugation of the epsilon-amino group of the Lysine side chain with (2-[2-(2-) [Example 1045] next?
Result: 107
